# Tested on: Quadruplex DNA
# TEST: Binding affinity to telomeric Telo21 G-quadruplex DNA (unknown origin) assessed as equilibrium binding constant at 5 uM at 25 degreeC by […]
# Assay type: nucleic-acid assay
OBSERVABLE: Kb (M⁻¹)

Solved cases (2 shown):
| INPUT_SMILES | VALUE_MEASURED |
| --- | --- |
| CSc1ccc(/C=C/c2cc(/C=C3\Sc4ccccc4N3CCCN3CCOCC3)c3ccccc3[n+]2C)cc1.[I-] | 301000 |
| C[n+]1c(/C=C/c2ccc(N(c3ccccc3)c3ccccc3)cc2)cc(/C=C2\Sc3ccccc3N2CCCN2CCOCC2)c2ccccc21.[I-] | 523000 |

A. CSc1ccc(/C=C/c2cc(/C=C3\Sc4ccccc4N3CCCN3CCC(C)CC3)c3ccccc3[n+]2C)cc1.[I-]
B. CC1CCN(CCCN2/C(=C/c3cc(/C=C/c4ccc(C#N)cc4)[n+](C)c4ccccc34)Sc3ccccc32)CC1.[I-]
Problem: Would you kindly point out which of A and B has the smaller Kb figure? The response must carry the label of the picked entry.
Solution: A
(A: 650000 M⁻¹, B: 957000 M⁻¹)

Where do the numbers come from? From ChEMBL document CHEMBL4834396.
